assayTarget: T1, HLA-A*0201 (human)
T1 construct: MHC monomer first loaded with a UV-sensitive peptide that is cleaved and exchanged for the test peptide; captured on streptavidin; also called peptide-receptive MHC molecules
procedureDetails: UV-ligand exchange, streptavidin/anti-b2m sandwich ELISA
measure: Average exchange yield in % (%)

Field: example entries. Status: answers known.
INSERT INTO measurements (binder, assayvalue) VALUES
  ('SLAPAGVIRV (synthetic peptide from TLX3) [TLX3-001]', 70),
  ('NLLAEIHGV (synthetic peptide from DPYSL4) [DPYSL4-001]', 77);

I. ALANQKLYSV (synthetic peptide from MDN1) [MDN1-001]
II. KIQEILTQV (synthetic peptide from IGF2BP3) [IGF2BP3-001]
// task: argmin of Average exchange yield in % over [ I , II ] Please respond with the label that marks your chosen entry. II

P. FLVDGSWSV (synthetic peptide from COL12A1) [COL12A1-002]
Q. ILVSWLPRL (synthetic peptide from NET1) [NET1-001]
Select the item with the higher value of Average exchange yield in % from the options P and Q listed. Could you answer with the label of the item you picked? Q

P. KIVDFSYSV (synthetic peptide from BUB1B) [BUB1B-001]
Q. TLYPHTSQV (synthetic peptide from VCAN) [VCAN-001]
Please tell me which of the two, P or Q , has the higher reported Average exchange yield in % value. I would appreciate it if you answered with the label of your choice. P
(P: 59%, Q: 41%)

1. SLLPVDIRQYL (synthetic peptide from STAT2) [STAT2-001]
2. SLYKGLLSV (synthetic peptide from RAD54B) [RAD54B-001]
Lab note: record which item had the higher Average exchange yield in %, 1 or 2 . Label of pick, please. 1
(1: 69%, 2: 48%)
